Assay: MRP1 drug-resistance reversers in H69AR cells – cell-based, doxorubicin co-treatment, pilot screen (AID 601)
Conditions: H69AR cells + 2 uM doxorubicin, CellTiter-Glo, 72 h; measured here: viability with 2 uM doxorubicin; at 10 µM; stronger effect = lower value
Decision: viability beneath 80% gives rule met; viability meeting or exceeding 80% gives rule not met.

Molecule: Cc1cccc(N2CCc3c2nc2ccccc2c3N)c1
Class Name: rule met
--
Molecule: Clc1ccc(CSC(Cn2ccnc2)c2ccc(Cl)cc2Cl)cc1 (stereo not given)
Class Name: rule met
--
Molecule: COc1cc(/C=N/n2cnnc2)ccc1OC(=O)N(C)C
Class Name: rule not met
--
Molecule: CN(C)[C@@H]1C(=O)C(C(N)=O)=C(O)[C@@]2(O)C(=O)C3=C(O)c4c(O)cccc4[C@@](C)(O)[C@H]3[C@H](O)[C@@H]12
Class Name: rule not met
--
Molecule: Cc1cccc(C2=NCC(=O)N(CC(=O)NCc3ccco3)c3sc4c(c32)CCCC4)c1
Class Name: rule not met
--
Molecule: CCOc1ccc(C2SCC(=O)Nc3c2c(=O)[nH]n3C2CCCCCC2)cc1 (stereo not given)
Class Name: rule met
--
Molecule: CC1CCN2c3nc4ccccn4c(=O)c3CC3(C(=O)N(C)C(=O)N(C)C3=O)C2C1 (stereo not given)
Class Name: rule not met
--
Molecule: COC(=O)CC1(Cc2ccccc2)C(=O)NC(=O)NC1=O
Class Name: rule not met
